# TARGET OR TEST SYSTEM: human TLR9 (Homo sapiens (Human), UniProt Q9NR96)
# Sequence (Q9NR96 26-1032): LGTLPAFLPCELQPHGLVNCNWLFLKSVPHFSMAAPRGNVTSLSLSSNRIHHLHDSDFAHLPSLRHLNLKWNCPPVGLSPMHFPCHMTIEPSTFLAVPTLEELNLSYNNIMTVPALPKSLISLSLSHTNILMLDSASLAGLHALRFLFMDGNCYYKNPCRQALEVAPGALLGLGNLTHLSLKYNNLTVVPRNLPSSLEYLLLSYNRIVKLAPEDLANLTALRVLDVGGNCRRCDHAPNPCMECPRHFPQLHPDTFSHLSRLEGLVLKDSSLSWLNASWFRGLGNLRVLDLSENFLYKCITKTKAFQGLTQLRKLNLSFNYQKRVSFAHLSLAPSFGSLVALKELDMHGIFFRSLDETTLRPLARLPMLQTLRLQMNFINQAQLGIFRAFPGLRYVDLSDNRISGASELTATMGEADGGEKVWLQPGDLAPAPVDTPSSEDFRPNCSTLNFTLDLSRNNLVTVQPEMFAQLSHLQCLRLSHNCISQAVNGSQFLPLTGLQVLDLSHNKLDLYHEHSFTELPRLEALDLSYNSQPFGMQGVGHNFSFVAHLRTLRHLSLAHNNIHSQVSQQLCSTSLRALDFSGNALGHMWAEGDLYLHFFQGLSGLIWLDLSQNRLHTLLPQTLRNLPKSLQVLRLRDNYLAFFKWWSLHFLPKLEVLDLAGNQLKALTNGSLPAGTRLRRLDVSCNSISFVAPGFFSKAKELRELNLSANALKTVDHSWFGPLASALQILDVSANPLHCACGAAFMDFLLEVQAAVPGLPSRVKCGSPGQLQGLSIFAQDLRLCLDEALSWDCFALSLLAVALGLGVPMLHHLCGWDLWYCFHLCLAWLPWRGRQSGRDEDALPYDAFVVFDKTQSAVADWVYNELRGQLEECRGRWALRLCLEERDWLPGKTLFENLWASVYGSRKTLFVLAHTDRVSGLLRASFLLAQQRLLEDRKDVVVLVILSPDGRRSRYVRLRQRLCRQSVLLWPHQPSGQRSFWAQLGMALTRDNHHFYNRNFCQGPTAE
# TEST DESCRIPTION: TLR9 inhibition reporter assay (HEK-Blue, SEAP)
# CONDITION: HEK-Blue cells overexpressing human TLR9, ODN2006 5 nM stimulation
REPORTED PROPERTY: IC50 (nM)
Numbers only, in nM.

Here are 2 molecules together with their reported answers.
Cc1cc(-c2[nH]c3ccc(-c4nc(C5CCNCC5)c[nH]4)cc3c2C(C)C)ccn1 [Example 189] = 921
Cc1cc(-c2[nH]c3ccc(-c4nnc(C(=O)NC5CCNC5)s4)cc3c2C(C)C)ccn1 (centres unmarked) [Example 137] = 705

Kindly consider the entry below.
For the molecule shown here, CC(C)c1c(-c2ccnc3[nH]ncc23)[nH]c2ccc(-c3nnc([C@H]4CCCNC4)o3)cc12 [Example 126] , give the reported IC50.
389
